Test Settings: in water, 327.17 K
Observation Type: solubility (mole fraction)

smiles=O=C(O)CCP(=O)(O)c1ccccc1 measured_result=0.0133

###

Test Settings: in toluene, 333.17 K
Observation Type: solubility (mole fraction)

compound="O=P1(O)OCC2(CO1)COP(=O)(O)OC2 (stereo unspecified)" measured_result=0.00209

###

Test Settings: in chloroform, 303.18 K
Observation Type: solubility (mole fraction)

smiles=O=C(O)CCP(=O)(O)c1ccccc1 measured_result=0.00041

###

Test Settings: in ethyl acetate, 308.66 K
Observation Type: solubility (mole fraction)

compound="O=P1(Oc2ccccc2)OCC2(CO1)COP(=O)(Oc1ccccc1)OC2 (stereo unspecified)" observation_type="solubility (mole fraction)" measured_result=0.00193
